Assay: in vivo
Conditions: female, Balb/c, mouse, po, 10 mg/kg, AUClast
Classify on AUC(0-t) using bottom range: < 1 µg·h/mL; center range: ≥ 1 µg·h/mL and < 5 µg·h/mL; top range: ≥ 5 µg·h/mL

COMPOUND | ASSIGNED_CATEGORY
CC1(C)NC(=O)c2c(Cl)cc(Nc3cc(NC(=O)C4CC4)ncn3)c(=O)n21 | bottom range
CC1(c2cccc(Cl)c2)NC(=O)c2c(Cl)cc(Nc3ccncn3)c(=O)n21 (centres unmarked) | top range
Cl.O=C1NC2(CCCNC2)n2c1c(Cl)cc(Nc1cc(NC(=O)C3CC3)ncn1)c2=O (centres unmarked) | bottom range
CC1(C2CCCC2)NC(=O)c2ccc(Nc3cc(NC(=O)C4CC4)ncn3)c(=O)n21 (centres unmarked) | bottom range
CC1(c2cccc(F)c2)NC(=O)c2c(Cl)cc(Nc3cc(NC(=O)C4CC4)ncn3)c(=O)n21 (centres unmarked) | top range
Cc1cc(Nc2cc(N)ncn2)c(=O)n2c1C(=O)NC21CCCCC1 | center range
CC1(C(F)(F)F)NC(=O)c2ccc(Nc3cc(NC(=O)C4CC4)ncn3)c(=O)n21 (centres unmarked) | bottom range
CC1(CC(F)(F)F)NC(=O)c2c(Cl)cc(Nc3ccncn3)c(=O)n21 (centres unmarked) | top range
CC1(C(F)(F)F)NC(=O)c2c(Cl)cc(Nc3ccncn3)c(=O)n21 (centres unmarked) | top range
CC1(C)NC(=O)c2c(Cl)cc(Nc3cc(N)ncn3)c(=O)n21 | center range
O=C1NC2(CCCCC2)n2c1c(Cl)cc(Nc1cc(NC(=O)C3CC3)ncn1)c2=O | bottom range
CC1(c2cccc(Cl)c2)NC(=O)c2c(Cl)cc(Nc3cc(NC(=O)C4CC4)ncn3)c(=O)n21 (centres unmarked) | top range
Cl.Nc1cc(Nc2cc(Cl)c3n(c2=O)C2(CCC(F)(F)CC2)NC3=O)ncn1 | center range
Cc1cc(Nc2cc(N)ncn2)c(=O)n2c1C(=O)NC21CCCC1.Cl | center range
Nc1cc(Nc2cc(Cl)c3n(c2=O)C2(CCCCC2)NC3=O)ncn1 | center range
Nc1cc(Nc2cc(Cl)c3n(c2=O)C2(CCCC2)NC3=O)ncn1 | top range
CC1(C)NC(=O)c2ccc(Nc3cc(NC(=O)C4CC4)ncn3)c(=O)n21 | top range
O=C1NC2(CCCC2)n2c1ccc(Nc1cc(NC(=O)C3CC3)ncn1)c2=O | bottom range
CC1(CC(F)(F)F)NC(=O)c2ccc(Nc3cc(NC(=O)C4CC4)ncn3)c(=O)n21 (centres unmarked) | center range
O=C1NC2(CCCNC2)n2c1ccc(Nc1ccncn1)c2=O (centres unmarked) | center range

###

This section presents compounds with their documented Cl_obs values.
Experiment: Pharmacokinetics in Balb/c mice, single intravenous bolus administration
Type: in vivo
Details: intravenous bolus 1 mg/kg, formulation 10DMA/15EtOH/35PEG300/40D5W, gender F
METRIC: Cl_obs (mL/min/kg)

MOL | METRIC | EXPERIMENTAL_VALUE
CC1(C)NC(=O)c2c(Cl)cc(Nc3cc(N)ncn3)c(=O)n21 | Cl_obs | 61
Cc1cc(Nc2cc(N)ncn2)c(=O)n2c1C(=O)NC21CCCC1.Cl | Cl_obs | 46.6
Cc1cc(Nc2cc(N)ncn2)c(=O)n2c1C(=O)NC21CCCCC1 | Cl_obs | 33.2
Nc1cc(Nc2cc(Cl)c3n(c2=O)C2(CCCC2)NC3=O)ncn1 | Cl_obs | 20.5
